# SYSTEM TESTED: hFASN enzyme (full length) (Homo sapiens, UniProt P49327)
# Construct: 10 μL hFASN enzyme (full length, 300 ng, purified in house); made in house
# Sequence (P49327 whole entry): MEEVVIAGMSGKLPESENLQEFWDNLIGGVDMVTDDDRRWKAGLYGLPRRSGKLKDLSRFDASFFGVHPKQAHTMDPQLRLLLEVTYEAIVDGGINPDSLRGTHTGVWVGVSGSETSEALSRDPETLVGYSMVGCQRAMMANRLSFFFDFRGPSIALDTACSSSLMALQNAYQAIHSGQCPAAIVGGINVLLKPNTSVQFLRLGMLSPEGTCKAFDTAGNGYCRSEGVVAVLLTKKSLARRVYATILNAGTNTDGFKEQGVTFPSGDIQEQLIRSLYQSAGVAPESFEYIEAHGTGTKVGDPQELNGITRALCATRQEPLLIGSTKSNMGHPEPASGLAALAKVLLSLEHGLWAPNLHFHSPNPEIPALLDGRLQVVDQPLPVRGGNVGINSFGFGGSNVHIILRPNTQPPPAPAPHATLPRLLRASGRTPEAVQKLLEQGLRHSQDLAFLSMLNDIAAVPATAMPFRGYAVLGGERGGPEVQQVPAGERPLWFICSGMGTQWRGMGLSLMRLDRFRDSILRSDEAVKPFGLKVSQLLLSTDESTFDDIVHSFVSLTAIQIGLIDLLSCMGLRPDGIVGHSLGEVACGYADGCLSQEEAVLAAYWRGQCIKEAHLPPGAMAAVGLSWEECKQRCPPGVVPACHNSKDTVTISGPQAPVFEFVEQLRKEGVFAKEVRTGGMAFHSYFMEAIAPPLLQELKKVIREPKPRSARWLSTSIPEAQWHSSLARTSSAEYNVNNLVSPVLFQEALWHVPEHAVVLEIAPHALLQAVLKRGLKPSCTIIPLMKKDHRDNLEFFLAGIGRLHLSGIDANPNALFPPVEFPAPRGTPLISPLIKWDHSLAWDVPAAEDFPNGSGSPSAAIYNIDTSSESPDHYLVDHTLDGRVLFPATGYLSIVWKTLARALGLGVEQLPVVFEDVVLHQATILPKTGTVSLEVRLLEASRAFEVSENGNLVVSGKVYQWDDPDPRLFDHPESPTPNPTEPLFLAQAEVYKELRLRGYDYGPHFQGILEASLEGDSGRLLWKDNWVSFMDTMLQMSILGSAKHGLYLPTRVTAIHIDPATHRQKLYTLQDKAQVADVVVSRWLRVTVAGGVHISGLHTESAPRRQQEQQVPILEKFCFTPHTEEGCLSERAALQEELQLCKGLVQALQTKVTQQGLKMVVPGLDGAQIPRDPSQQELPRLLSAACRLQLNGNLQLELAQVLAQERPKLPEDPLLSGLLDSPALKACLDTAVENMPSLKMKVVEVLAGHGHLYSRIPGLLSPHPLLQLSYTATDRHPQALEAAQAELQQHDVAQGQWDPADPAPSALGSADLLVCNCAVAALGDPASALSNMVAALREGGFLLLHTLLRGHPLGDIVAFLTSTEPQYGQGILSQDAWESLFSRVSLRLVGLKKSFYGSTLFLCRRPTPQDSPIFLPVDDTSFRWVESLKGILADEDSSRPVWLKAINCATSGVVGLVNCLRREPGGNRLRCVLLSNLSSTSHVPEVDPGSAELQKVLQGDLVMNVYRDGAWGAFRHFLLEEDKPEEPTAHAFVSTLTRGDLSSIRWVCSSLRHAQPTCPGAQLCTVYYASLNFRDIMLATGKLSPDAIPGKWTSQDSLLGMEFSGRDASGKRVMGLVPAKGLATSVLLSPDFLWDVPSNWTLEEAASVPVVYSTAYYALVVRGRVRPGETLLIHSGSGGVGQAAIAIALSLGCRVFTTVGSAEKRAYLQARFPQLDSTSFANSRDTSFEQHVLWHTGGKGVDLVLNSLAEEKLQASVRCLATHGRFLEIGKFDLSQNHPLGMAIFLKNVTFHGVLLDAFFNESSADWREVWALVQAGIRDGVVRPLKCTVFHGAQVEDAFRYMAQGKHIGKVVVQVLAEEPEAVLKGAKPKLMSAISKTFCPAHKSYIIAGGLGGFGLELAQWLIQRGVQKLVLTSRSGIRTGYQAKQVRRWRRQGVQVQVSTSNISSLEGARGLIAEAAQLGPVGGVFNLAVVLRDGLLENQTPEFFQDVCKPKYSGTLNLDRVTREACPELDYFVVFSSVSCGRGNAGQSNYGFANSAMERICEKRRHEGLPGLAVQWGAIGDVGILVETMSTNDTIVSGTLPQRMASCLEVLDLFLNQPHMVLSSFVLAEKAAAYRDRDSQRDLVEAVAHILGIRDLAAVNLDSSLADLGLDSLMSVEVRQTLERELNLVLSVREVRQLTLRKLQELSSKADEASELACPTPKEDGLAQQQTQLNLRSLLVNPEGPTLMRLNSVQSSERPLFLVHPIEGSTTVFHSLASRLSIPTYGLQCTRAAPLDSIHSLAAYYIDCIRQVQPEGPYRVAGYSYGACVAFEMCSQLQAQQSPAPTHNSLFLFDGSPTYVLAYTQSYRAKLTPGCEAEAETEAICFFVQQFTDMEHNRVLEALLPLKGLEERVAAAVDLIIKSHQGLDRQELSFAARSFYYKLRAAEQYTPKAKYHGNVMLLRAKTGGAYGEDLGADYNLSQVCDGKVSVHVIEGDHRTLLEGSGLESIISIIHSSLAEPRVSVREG
# METHOD SUMMARY: Fatty Acid Synthase (FASN) Inhibition Scintillation Proximity Assay
# Format: biochemical
# REPORTED CONDITIONS: read-out: FASN % Effect @1E−05M
# Experimental: In this assay, inhibition of FASN activity is measured using ^3H-acetyl-CoA and malonyl-CoA as substrates. ^3H-Acetyl CoA is converted to ^3H-palmitate through a series of reactions by the FASN protein, which contains 7 functional domains and carries out 7 enzymatic reactions to ultimately produce ^3H-palmitate. […] Raw data generated by the instrument were normalized to % Controlmin values, which were calculated as: % Controlmin=100*(x−mLC)/(mHC−mLC) […]
RECORDED METRIC: inhibition at 10 µM
Reply with the number, then its unit.

Please review the entries below; each comes with its answer.
Cc1ccc(C(=O)N2CC(c3ccc(-c4ccc5cnccc5c4)cc3)C2)cc1NC(=O)c1ccc(NC(C)C)nc1    103%
CCN1CCC(C(=O)Nc2cc(C(=O)N3CCC(c4ccc(-c5cnn(C)c5)cc4)CC3)ccc2C)C1 (stereo not shown)    101%
COc1ccccc1C(=O)Nc1cc(C(=O)N2CCC(c3ccc(-c4cnn(C)c4)cc3)CC2)ccc1C    86%

Please look at the following compound next.
Problem: Need inhibition at 10 µM, item Cc1ccc(C(=O)N2CC(c3ccc(-c4cnn(C)c4)cc3)C2)cc1NC(=O)C1CCCCC1
Result: 104%

----------
Below, each entry is listed with its recorded IC50.
# System: A2780 ovarian cells
# METHOD SUMMARY: A2780 Ovarian Cell Proliferation Assay in Lipid Reduced Medium, without Palmitate
# Type: cell-based
# REPORTED CONDITIONS: Homo sapiens, A2780; lipid reduced medium, without palmitate, 96 h, MTT; read-out: Proliferation A2780 w/o Palmitate pIC50 (converted)
I only need the number, in nM, no unit after it.

Please review the entries below; each comes with its answer.
Cc1ccc(C(=O)N2CCC(c3ncc(-c4cnn(C)c4)cn3)CC2)cc1NC(=O)c1ccc(Cl)nc1 [Compound 257]    891
Cc1ccc(C(=O)N2CC[C@H](c3ccc(-n4ccnc4)cc3)[C@H](C)C2)cc1NC(=O)c1ccc(Cl)nc1 (racemic) [Compound 53]    603

Problem: Need IC50, item Cc1ccc(C(=O)N2CCC(c3ccc4c(c3)NC(=O)CC4)CC2)cc1NC(=O)c1ccc(Cl)nc1 [Compound 23]
Result: 1120

----------
# SYSTEM TESTED: hFASN enzyme (full length) (Homo sapiens, UniProt P49327)
# Construct: 10 μL hFASN enzyme (full length, 300 ng, purified in house); made in house
# METHOD SUMMARY: Fatty Acid Synthase (FASN) Inhibition Scintillation Proximity Assay
# Type: biochemical
# REPORTED CONDITIONS: read-out: FASN % Effect @1E−05M
Below, each entry is listed with its recorded inhibition at 10 µM.
I only need the number, in %, no unit after it.

Cc1ccc(C(=O)N2CCC(c3ccc(-c4cnn(C)c4)cc3)CC2)cc1NC(=O)c1ccc(Cl)cc1 [Compound #100]    111
Cc1ccc(C(=O)N2CCC(c3ccc(-c4cnn(C)c4)cc3)CC2)cc1NC(=O)C1CN(C2CCCC2)C1 [Compound 187]    103
Cc1ccc(C(=O)N2CCC(c3ccc(-c4cnn(C)c4)cc3)CC2)cc1NC(=O)C1CCN(CC(C)(C)C)C1 (stereo not shown) [Compound 192]    105

Problem: Need inhibition at 10 µM, item Cc1ccc(C(=O)N2CCC(c3ccc(-c4cnn(C)c4)cc3)CC2)cc1NC(=O)C1CCN(Cc2ccccc2)CC1 [Compound 124]
Result: 105

Problem: Need inhibition at 10 µM, item Cc1ccc(C(=O)N2CCC(c3ccc(-c4cnn(C)c4)cc3)CC2)cc1NC(=O)c1ccc(F)cc1 [Compound 116]
Result: 101

Problem: Need inhibition at 10 µM, item Cc1ccc(C(=O)N2CC(c3ccc(-c4cnn(C)c4)cc3)C2)cc1NC(=O)c1ccc(N2CCOCC2)nc1 [Compound #66]
Result: 118

Problem: Need inhibition at 10 µM, item Cc1ccc(C(=O)N2CCC(c3ccc4[nH]c(=O)sc4c3)CC2)cc1NC(=O)c1ccc(NC(C)C)nc1 [Compound 49]
Result: 97

----------
# Tested on: A2780 ovarian cells
# METHOD SUMMARY: A2780 Ovarian Cell Proliferation Assay in Lipid Reduced Medium, without Palmitate
# Assay type: cell-based
# REPORTED CONDITIONS: Homo sapiens, A2780; lipid reduced medium, without palmitate, 96 h, MTT; read-out: Proliferation A2780 w/o Palmitate pIC50 (converted)
RECORDED METRIC: IC50 (µM)
I only need the number, in µM, no unit after it.

Problem: Need IC50, item Cc1ccc(C(=O)N2CCC(c3ccc(-c4cnn(C5CC5)c4)cc3)CC2)cc1NC(=O)c1ccc(NC(C)C)nc1
Result: 0.0182

Problem: Need IC50, item Cc1ccc(C(=O)N2CC(c3ccc(-c4ccnn4C)cc3)C2)cc1NC(=O)c1ccc(N2CCN(C)CC2)nc1
Result: 0.0933

Problem: Need IC50, item Cc1ccc(C(=O)N2CCC(c3ccc4c(c3)CC(=O)N4)CC2)cc1NC(=O)c1ccc(Cl)nc1
Result: 1.23

Problem: Need IC50, item CCCCCCN1CCC(C(=O)Nc2cc(C(=O)N3CCC(c4ccc(-c5cnn(C)c5)cc4)CC3)ccc2C)C1 (centres unmarked)
Result: 0.407

Problem: Need IC50, item Cc1ccc(C(=O)N2CCC(c3ccc(-c4cnn(C)c4)cc3)CC2)cc1NC(=O)C1CCN(C2CCCC2)C1 (centres unmarked)
Result: 0.263

Problem: Need IC50, item Cc1ccc(C(=O)N2CCC(c3ncc(-c4cnn(C)c4)cn3)CC2)cc1NC(=O)c1ccc(NC(C)C)nc1
Result: 0.389

Problem: Need IC50, item Cc1ccc(C(=O)N2CCC(c3ccc(-c4cnn(C)c4)cc3)CC2)cc1NC(=O)C1CCN(C2CCCCC2)CC1
Result: 0.0138

----------
# SYSTEM TESTED: UniProt P49327
pIC50: −log10 of the molar value.
Returns Yes if the recorded pIC50 is greater than or equal to 7, and No otherwise.

Worked cases, answers included:
Cc1ccc(C(=O)N2CCC(c3ccc(-c4cnn(C)c4)cc3)CC2)cc1NC(=O)c1ccccc1Cl [Compound 96]    Yes
Cc1ccc(C(=O)N2CCC(c3ccc(-c4ccc(F)cc4)cc3)CC2)cc1NC(=O)c1ccc(NC(C)C)nc1 [Compound 250]    No
Cc1ccc(C(=O)N2CCC(c3ccc(-c4cnn(C)c4)cc3)CC2)cc1NC(=O)c1ccc(N2CCN[C@H](CO)C2)nc1 [Compound 164]    Yes
Cc1ccc(C(=O)N2CCC(c3ccc(-c4cnn(C)c4)cc3)CC2)cc1NC(=O)c1ccc(NC(C)C)nc1 [Compound #32]    Yes
Cc1ccc(C(=O)N2CCC(c3ccc4[nH]c(=O)sc4c3)CC2)cc1NC(=O)c1ccc(Cl)nc1 [Compound 48]    No

Problem: Is reported pIC50 greater than or equal to 7 here: Cc1ccc(C(=O)N2CCC(c3ccc(-c4cnn(C)c4)cc3)CC2)cc1NC(=O)c1ccc(C(F)(F)F)cc1 [Compound 145]
Result: Yes

Problem: Is reported pIC50 greater than or equal to 7 here: Cc1ccc(C(=O)N2CCC(c3ccc(-c4cnn(C)c4)cc3)CC2)cc1NC(=O)c1ccc(NC2CCC2)nc1 [Compound 134]
Result: Yes

Problem: Is reported pIC50 greater than or equal to 7 here: Cc1ccc(C(=O)N2CCC(c3ccc(-c4cnn(C5CCC5)c4)cc3)CC2)cc1NC(=O)c1ccc(NC(C)C)nc1 [Compound 248]
Result: Yes

Problem: Is reported pIC50 greater than or equal to 7 here: CC(C)Nc1ccc(C(=O)Nc2cc(C(=O)N3CC[C@H](c4ccc(-c5ccnn5C)cc4)[C@@H](O)C3)ccc2Cl)cn1 (racemic) [Compound #77]
Result: No

Problem: Is reported pIC50 greater than or equal to 7 here: Cc1ccc(C(=O)N2CC(O)(c3ccc(-c4ccnn4C)cc3)C2)cc1NC(=O)c1ccc(Cl)nc1 [Compound 107]
Result: No

Problem: Is reported pIC50 greater than or equal to 7 here: Cc1ccc(C(=O)N2CCC(c3ccc(-c4cnn(C)c4)cc3)CC2)cc1NC(=O)C1CCCCC1 [Compound 86]
Result: Yes

Problem: Is reported pIC50 greater than or equal to 7 here: Cc1ccc(C(=O)N2CCC(c3ccc(-c4ccoc4)cc3)CC2)cc1NC(=O)c1ccc(NC(C)C)nc1 [Compound 235]
Result: Yes

Problem: Is reported pIC50 greater than or equal to 7 here: Cc1ccc(C(=O)N2CCC(c3ccc4ccncc4c3)CC2)cc1NC(=O)c1ccc(NC(C)C)nc1 [Compound 28]
Result: No

Problem: Is reported pIC50 greater than or equal to 7 here: Cc1ccc(C(=O)N2CC(c3ccc(-c4cnn(C)c4)cc3)C2)cc1NC(=O)c1cnc(NC(C)C)nc1 [Compound 158]
Result: Yes

Problem: Is reported pIC50 greater than or equal to 7 here: Cc1ccc(C(=O)N2CCC(c3ccc(-c4cn(C)nc4C)cc3)CC2)cc1NC(=O)c1ccc(NC(C)C)nc1 [Compound 245]
Result: Yes

Problem: Is reported pIC50 greater than or equal to 7 here: Cc1ccc(C(=O)N2CC(c3ccc(-c4cnn(C)c4)cc3)C2)cc1NC(=O)c1ccc(NC(C)C)nc1 [Compound 24]
Result: Yes

Problem: Is reported pIC50 greater than or equal to 7 here: Cc1ccc(C(=O)N2CC(c3ccc(-c4ccnn4C)cc3)C2)cc1NC(=O)c1ccc(NC(C)C)nc1 [Compound 25]
Result: Yes

Problem: Is reported pIC50 greater than or equal to 7 here: CC(C)Nc1ccc(C(=O)Nc2cc(C(=O)N3CC(c4ccc(-c5ccc6cnccc6c5)cc4)C3)ccc2Cl)cn1 [Compound #75]
Result: Yes

Problem: Is reported pIC50 greater than or equal to 7 here: Cc1ccc(C(=O)N2CCC(c3ccc(-c4cnn(C(C)C)c4)cc3)CC2)cc1NC(=O)c1ccc(NC(C)C)nc1 [Compound 247]
Result: Yes

Problem: Is reported pIC50 greater than or equal to 7 here: COc1cc(Cl)cc(C(=O)Nc2cc(C(=O)N3CCC(c4ccc(-c5cnn(C)c5)cc4)CC3)ccc2C)c1 [Compound 128]
Result: No
